# assayedTarget: Cyclin-dependent kinase 2 (Homo sapiens, UniProt P24941)
pIC50: −log10 of the molar value.
# label = 1 if pIC50 >= 8 else 0

Here are 2 compounds together with their reported answers.
[
  {
    "compound": "C[C@H]1CNC[C@H](C(=O)Nc2ncc(SCc3ncc(C(C)(C)C)o3)s2)C1",
    "discreteLabel": 1
  },
  {
    "compound": "CC1CNCC(C(=O)Nc2ncc(SCc3ncc(C(C)(C)C)o3)s2)C1 (stereo not given)",
    "discreteLabel": 0
  }
]

Continue with the compound presented below.
Hello, I need to know if `C[C@@H]1CNC[C@@H](C(=O)Nc2ncc(SCc3ncc(C(C)(C)C)o3)s2)C1` has measured pIC50 not below 8. Thanks!
0

---

Reported remaining at 1 h, 1 µM values are given for each entry in this list.
# protocolSummary: Stability in mouse liver microsomes at 1 uM after 60 mins by LC-MS/MS method
# Format: ADME, Microsome
# conditionDescription: read-out: Stability
Phrase the answer as number then unit, nothing more needed.

Below, each entry is followed by its recorded remaining at 1 h, 1 µM result.
[
  {
    "compound": "CC1CCC(C(=O)Nc2ncc(SCc3ncc(C(C)(C)C)o3)s2)CN1 (stereo not given)",
    "observed": "8%"
  },
  {
    "compound": "CC(C)C1CC(C(=O)Nc2ncc(SCc3ncc(C(C)(C)C)o3)s2)CCN1 (stereo not given)",
    "observed": "1%"
  },
  {
    "compound": "C[C@@H]1CNC[C@@H](C(=O)Nc2ncc(SCc3ncc(C(C)(C)C)o3)s2)C1",
    "observed": "0%"
  },
  {
    "compound": "CC(C)(C)c1cnc(CSc2cnc(NC(=O)C3CCCNC3)s2)o1 (stereo not given)",
    "observed": "44%"
  }
]

# lookup: remaining at 1 h, 1 µM of `C[C@H]1CNC[C@H](C(=O)Nc2ncc(SCc3ncc(C(C)(C)C)o3)s2)C1`
8%

---

# protocolSummary: Stability in human liver microsomes at 1 uM after 30 mins by LC-MS/MS method
# Type: ADME, Microsome
# conditionDescription: read-out: Stability
Labelling: remaining at 0.5 h, 1 µM reported below 60% becomes 1; at or above becomes 0.

[
  {
    "compound": "C[C@@H]1CNC[C@H](C(=O)Nc2ncc(SCc3ncc(C(C)(C)C)o3)s2)C1",
    "discreteLabel": 0
  },
  {
    "compound": "CC(C)(C)c1cnc(CSc2cnc(NC(=O)C3CCCNC3)s2)o1 (stereo unspecified)",
    "discreteLabel": 0
  },
  {
    "compound": "C[C@H]1CNC[C@@H](C(=O)Nc2ncc(SCc3ncc(C(C)(C)C)o3)s2)C1",
    "discreteLabel": 1
  },
  {
    "compound": "CC(C)C1CC(C(=O)Nc2ncc(SCc3ncc(C(C)(C)C)o3)s2)CCN1 (stereo unspecified)",
    "discreteLabel": 1
  },
  {
    "compound": "CC1CCC(C(=O)Nc2ncc(SCc3ncc(C(C)(C)C)o3)s2)CN1 (stereo unspecified)",
    "discreteLabel": 0
  },
  {
    "compound": "CC1NCCCC1C(=O)Nc1ncc(SCc2ncc(C(C)(C)C)o2)s1 (stereo unspecified)",
    "discreteLabel": 1
  },
  {
    "compound": "CC(C)(C)c1cnc(CSc2cnc(NC(=O)C3CCNCC3)s2)o1 [BMS-387032]",
    "discreteLabel": 0
  }
]

# ---- query compound ----
Lab note: remaining at 0.5 h, 1 µM threshold 60%. Does this compound come in strictly under it? `C[C@@H]1CNC[C@@H](C(=O)Nc2ncc(SCc3ncc(C(C)(C)C)o3)s2)C1`
1

// provenance: ChEMBL document CHEMBL1152130
